Test: qHTS for identification of novel therapeutic agents for treatment of microphthalmiaassociated transcription factor (MiT) renal cell carcinoma (RCC) (AID 1963991);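 further: curves scaled with 100% = DMSO viability and 0% = empty wells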
Conditions: TFE3-RCC UOK109 viability, CellTiter-Glo, 48 h; measured here: UOK109 Z-AUC; stronger effect = lower value
Records with an inconclusive call do not appear.
recorded.endpoint: z-score

[[record]]
molecule = "COc1cccc(Nc2c(C(N)=O)cnc3c(C)cc(S(=O)(=O)c4cccc(C(=O)N(C)C)c4)cc23)c1"
reading = 1.38

[[record]]
molecule = "O=C(O)[C@H](Cc1c[nH]c2ccccc12)N1C(=O)c2ccccc2C1=O"
reading = 0.59

[[record]]
molecule = "COC(=O)Nc1nc2ccc(C(=O)c3ccc(F)cc3)cc2[nH]1"
reading = -1.13

[[record]]
molecule = "CNC(=O)CN1CCC(Oc2cc3c(Nc4cccc(Cl)c4F)ncnc3cc2OC)CC1"
reading = -2.86

[[record]]
molecule = "Clc1cccc(-n2nnnc2NCc2ccccc2Oc2ccccn2)c1Cl"
reading = -0.1

[[record]]
molecule = "O=C(O)Cn1nnc(-c2cc(N3CCC(Oc4cc(F)ccc4Br)CC3)no2)n1"
reading = 0.654

[[record]]
molecule = "CS(=O)(=O)c1ccc(-c2cnc(N)c(C(=O)Nc3ccccc3)n2)cc1"
reading = 0.172

[[record]]
molecule = "O=c1[nH]c(=O)n(C2CCCO2)cc1F (stereo not given)"
reading = 0.952

[[record]]
molecule = "CCOc1cc2ncc(C#N)c(Nc3ccc(F)c(Cl)c3)c2cc1NC(=O)C=CCN(C)C"
reading = -2.91

[[record]]
molecule = "CC(NCc1ccc2c(c1)nc(NC(=O)c1ccc(-c3cn[nH]c3)s1)n2CC(C)(C)O)C(C)(C)C (stereo not given)"
reading = -1.95


These data points were gathered from PubChem BioAssay (NCATS).
